These data points were gathered from ChEMBL document CHEMBL1201862.

# Tested on: NCI-H522
# MEASUREMENT_NOTES: NCI tumour cell line growth inhibition, 48 h
Calls of active or inactive are those of the source. Rule as the data show it: active = GI50 up to about 1.1 µM and inactive = higher.
Consider the following compounds and their measured GI50 readings.

>  <COMPOUND>
COC(=O)C1(SC)C2CCC3C2CCC31 (stereo unspecified)

>  <EXPERIMENTAL_SYSTEM>
NCI-H522

>  <GI50>
> 100 µM (inactive)

$$$$
>  <COMPOUND>
CC1CN(CCO)CCN1c1ccccc1 (stereo unspecified)

>  <EXPERIMENTAL_SYSTEM>
NCI-H522

>  <GI50>
> 100 µM (inactive)

$$$$
>  <COMPOUND>
COc1cc2c(cc1OCc1ccccc1)NC(=O)[C@@H]1C[C@@H](O)CN1C2=O

>  <EXPERIMENTAL_SYSTEM>
NCI-H522

>  <GI50>
> 100 µM (inactive)

$$$$
>  <COMPOUND>
COc1cccc(/C=N/C23CC4CC(CC(C4)C2)C3)c1

>  <EXPERIMENTAL_SYSTEM>
NCI-H522

>  <GI50>
> 100 µM (inactive)

$$$$
>  <COMPOUND>
CC(=O)/N=C1\NC(=O)/C(=C/c2ccccc2Cl)N1C

>  <EXPERIMENTAL_SYSTEM>
NCI-H522

>  <GI50>
> 100 µM (inactive)

$$$$
>  <COMPOUND>
COc1cccc(N2C(=O)C3CC(CC(C)(C)C)c4c([nH]c5ccccc45)C3C2=O)c1 (stereo unspecified)

>  <EXPERIMENTAL_SYSTEM>
NCI-H522

>  <GI50>
> 10 µM (inactive)

$$$$
